TGT: T1, mfNPR1-mFc (monkey)
T1 construct: also called dimeric monkey NPR1
T1 chain: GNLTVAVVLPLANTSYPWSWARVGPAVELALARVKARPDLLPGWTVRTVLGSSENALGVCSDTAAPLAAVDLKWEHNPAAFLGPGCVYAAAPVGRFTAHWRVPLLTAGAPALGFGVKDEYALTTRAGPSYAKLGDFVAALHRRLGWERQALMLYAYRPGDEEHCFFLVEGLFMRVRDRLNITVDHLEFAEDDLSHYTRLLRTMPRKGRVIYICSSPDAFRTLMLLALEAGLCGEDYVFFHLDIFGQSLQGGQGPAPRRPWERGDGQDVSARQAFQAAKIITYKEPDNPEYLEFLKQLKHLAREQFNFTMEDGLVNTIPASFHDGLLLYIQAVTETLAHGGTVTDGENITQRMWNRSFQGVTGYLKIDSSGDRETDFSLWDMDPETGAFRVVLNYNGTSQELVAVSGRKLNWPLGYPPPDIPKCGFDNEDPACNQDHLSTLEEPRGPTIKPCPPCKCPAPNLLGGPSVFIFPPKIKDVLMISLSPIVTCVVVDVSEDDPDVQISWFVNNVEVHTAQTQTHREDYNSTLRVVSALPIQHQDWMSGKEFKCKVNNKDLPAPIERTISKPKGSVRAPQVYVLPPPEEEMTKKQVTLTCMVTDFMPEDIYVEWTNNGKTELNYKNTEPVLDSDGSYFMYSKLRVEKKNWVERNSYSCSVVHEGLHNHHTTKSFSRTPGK
METHOD_NOTES: SPR, mAb captured, 37C
// returns not satisfied unless Kd is strictly below 2 nM, in which case satisfied

{"columns": ["BINDER", "CLASS_ASSIGNMENT"],
 "data": [
  ["mAb25479 (antibody, human IgG4, V domains shown) VH: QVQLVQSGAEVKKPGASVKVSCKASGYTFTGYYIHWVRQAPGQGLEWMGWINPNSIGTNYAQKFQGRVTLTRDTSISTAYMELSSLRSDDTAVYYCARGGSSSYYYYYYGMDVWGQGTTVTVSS VL: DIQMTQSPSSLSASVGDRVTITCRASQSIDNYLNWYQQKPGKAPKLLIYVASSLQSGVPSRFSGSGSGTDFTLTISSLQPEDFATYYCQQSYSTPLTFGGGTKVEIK", "not satisfied"],
  ["mAb25491 (antibody, human IgG4, V domains shown) VH: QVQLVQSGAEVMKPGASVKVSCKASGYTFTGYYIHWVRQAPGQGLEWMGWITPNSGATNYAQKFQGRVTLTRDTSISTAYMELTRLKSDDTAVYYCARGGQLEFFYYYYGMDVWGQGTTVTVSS VL: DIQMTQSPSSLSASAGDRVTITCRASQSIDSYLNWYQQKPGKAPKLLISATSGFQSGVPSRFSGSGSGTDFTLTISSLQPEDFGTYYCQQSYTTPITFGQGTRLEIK", "not satisfied"]
]}

Below 2 nM on Kd? Entry mAb22033 (antibody, human IgG4, V domains shown) VH: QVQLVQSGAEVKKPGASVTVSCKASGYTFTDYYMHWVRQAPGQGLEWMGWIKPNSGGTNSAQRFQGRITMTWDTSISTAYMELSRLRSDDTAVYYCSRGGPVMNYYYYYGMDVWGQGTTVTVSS VL: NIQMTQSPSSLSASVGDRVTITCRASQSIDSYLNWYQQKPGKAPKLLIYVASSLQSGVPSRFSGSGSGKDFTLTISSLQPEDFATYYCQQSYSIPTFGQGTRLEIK
not satisfied

Bench note: check whether mAb25497 (antibody, human IgG4, V domains shown) VH: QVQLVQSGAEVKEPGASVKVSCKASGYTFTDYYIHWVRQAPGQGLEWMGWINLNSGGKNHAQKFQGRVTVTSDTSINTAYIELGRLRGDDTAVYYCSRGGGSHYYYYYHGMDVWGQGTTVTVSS VL: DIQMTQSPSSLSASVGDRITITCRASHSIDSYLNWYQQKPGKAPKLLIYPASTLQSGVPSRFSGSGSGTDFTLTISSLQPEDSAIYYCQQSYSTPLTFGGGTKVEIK shows Kd below 2 nM
not satisfied

Identify whether the binder mAb22035 (antibody, human IgG4, V domains shown) VH: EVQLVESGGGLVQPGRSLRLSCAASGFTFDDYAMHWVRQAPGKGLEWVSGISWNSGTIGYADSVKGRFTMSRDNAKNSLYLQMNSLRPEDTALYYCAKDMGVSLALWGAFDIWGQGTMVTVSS VL: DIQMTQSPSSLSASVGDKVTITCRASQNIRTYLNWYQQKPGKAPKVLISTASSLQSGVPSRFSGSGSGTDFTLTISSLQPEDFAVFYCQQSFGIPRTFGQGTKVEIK records Kd below 2 nM.
satisfied

Below 2 nM on Kd? Entry mAb25508 (antibody, human IgG4, V domains shown) VH: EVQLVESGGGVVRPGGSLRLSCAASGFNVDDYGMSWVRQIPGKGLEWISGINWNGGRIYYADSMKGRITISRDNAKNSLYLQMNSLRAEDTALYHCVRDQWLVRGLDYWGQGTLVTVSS VL: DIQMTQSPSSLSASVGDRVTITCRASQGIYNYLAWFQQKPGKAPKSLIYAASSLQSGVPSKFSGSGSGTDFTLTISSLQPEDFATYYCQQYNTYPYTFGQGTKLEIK
satisfied
